Assay: CREB reporter modulators without forskolin, primary screen, cell-based, PC12, CRE-LacZ reporter, unstimulated (AID 1145)
Conditions: no forskolin, luminescence, 4.5 h, higher = more signal, called active from +8 up or from −8 down
Decide by z-score: equal to or exceeding 0.2 means true (1), less means false (0).

INSERT INTO results (molecule, category_label) VALUES
  ('CC(C)OC(=O)CC(=O)CC(O)c1ccc(C#N)cc1 (centres undefined)', 'false (0)'),
  ('COCCOC(=O)N1C(=O)[C@@]2(c3cc(C#CC4=CCCCC4)ccc31)[C@H](C(=O)NC[C@H](O)c1ccccc1)[C@H]1C(=O)O[C@H](c3ccccc3)[C@H](c3ccccc3)N1[C@@H]2c1ccc(O)cc1', 'true (1)'),
  ('O=C(O)[C@@]1(Cc2ccccc2)N=C(c2ccc(OCCCO)cc2)O[C@H]1c1ccccc1', 'false (0)'),
  ('CCCNC(=O)[C@@H]1c2ccccc2C(=O)N(Cc2ccccc2)[C@H]1c1ccc(CO)cc1', 'false (0)'),
  ('C=CCC(OC(C)=O)[C@@H]1[C@@H](N(Cc2ccc(-c3ccccc3)cc2)C(=O)Cc2ccc(F)cc2)c2cc(OCCCO)ccc2N1C(=O)c1ccc2ccccc2n1 (some centres undefined)', 'true (1)'),
  ('C=C[C@@H](COC(C)=O)N(Cc1ccc([N+](=O)[O-])cc1)S(=O)(=O)c1ccc(Br)cc1', 'true (1)'),
  ('C=CCC(OC(C)=O)[C@@H]1[C@@H](N(Cc2cc3ccccc3o2)C(=O)c2ccc(C)cc2)c2cc(OCCCO)ccc2N1C(=O)c1ccc2ccccc2c1 (some centres undefined)', 'true (1)'),
  ('Cc1ccc(S[C@]2(C(=O)NCc3ccccc3)CC(=O)N(Cc3ccccc3)[C@@H]2c2ccc(CO)cc2)cc1', 'false (0)'),
  ('C=CCC(OC(C)=O)[C@@H]1[C@@H](N(Cc2ccc(-c3ccccc3)cc2)C(=O)Cc2ccc(OC)cc2)c2cc(OCCCO)ccc2N1C(=O)c1ccc2ccccc2n1 (some centres undefined)', 'true (1)'),
  ('Cc1c(NC(=O)CC#N)c(=O)n(-c2ccccc2)n1C', 'false (0)'),
  ('COC(=O)C[C@H]1O[C@]2(C(=O)N(Cc3ccccc3)c3ccc(NC(C)=O)cc32)[C@@H](C)[C@@H]1[Si](C)(C)c1ccc(OC)cc1', 'true (1)'),
  ('COC(=O)[C@@]1(Cc2ccccc2)N=C(c2ccc(OCCCO)cc2)O[C@H]1c1ccccc1N=[N+]=[N-]', 'true (1)'),
  ('COCCOC(=O)N1C(=O)[C@@]2(c3cc(C#CCCO)ccc31)[C@H](C(=O)NC[C@H](O)c1ccccc1)[C@H]1C(=O)O[C@H](c3ccccc3)[C@H](c3ccccc3)N1[C@@H]2c1ccc(O)cc1', 'false (0)'),
  ('CCOC(=O)C[C@H]1[C@H](OC(=O)Cc2ccc3c(c2)OCO3)[C@@H](NC(=O)C2CCCCC2)c2cc(OCCCO)ccc2N1C(=O)Cc1ccc(OC)cc1', 'true (1)');

====

Biological target: Fibroblast growth factor 10 (Homo sapiens)
Experiment: FGF10 binders on small-molecule microarrays, primary screen, biochemical, small-molecule microarray, 635 nm fluorescence (AID 1102)
Settings: FGF10 binding, fluorescence 635 nm, higher = more signal
Measurement type: composite z-score

INSERT INTO assay_data (compound, observed_measurement) VALUES
  ('CCOc1cc(C(O)C2C=CC3C(=O)N(c4ccccc4)C(=O)C3N2Nc2ccc([N+](=O)[O-])cc2)ccc1O (stereo unspecified)', 0.575),
  ('O=C1O[C@@H](c2ccccc2)[C@@H](c2ccccc2)N2[C@@H](c3ccc(O)cc3)[C@]3(C(=O)Nc4ccc(C#CC5(O)CCCCCC5)cc43)[C@@H](C(=O)N3CCCCCCC3)[C@H]12', 1.51),
  ('CN1C(=O)C2C=CC(C(O)c3ccccn3)N(Nc3ccccc3)C2C1=O (stereo unspecified)', 0.3),
  ('C=CC(=C)C1=CCO[C@@H]1[C@H]1CCCN1S(=O)(=O)c1ccccc1[N+](=O)[O-]', 0.925),
  ('C=C(C(=O)CC[C@H](OC(C)=O)c1ccc(OCCO)cc1)C(C)C', 1.37),
  ('COC(=O)c1ccc(C(O)C2C=CC3C(=O)N(C)C(=O)C3N2NC(=O)OC(C)(C)C)o1 (stereo unspecified)', 0.558),
  ('COCCOC(=O)N1C(=O)[C@@]2(c3cc(C#CCCO)ccc31)[C@H](c1ccccc1OCCO)N1[C@H](c3ccccc3)[C@H](c3ccccc3)OC(=O)[C@H]1[C@@H]2C(=O)N1CCN(c2ncccn2)CC1', 0.74),
  ('CCCCC=C[C@@H](NC(=O)c1ccco1)c1ccccc1', 0.689),
  ('CC(=O)Nc1cc(Br)ccc1C(=O)O', 0.225),
  ('CC(c1ccccc1)C(O)C1C=CC2C(=O)NC(=O)C2N1Nc1ccccn1 (stereo unspecified)', 0.831),
  ('[N-]=[N+]=Nc1ccccc1C[C@]1(C(=O)NCCN2CCOCC2)N=C(c2ccc(OCCCO)cc2)O[C@H]1c1ccccc1', 0.484),
  ('COCCOC(=O)N1C(=O)[C@@]2(c3cc(C#CCCO)ccc31)[C@H](C(=O)NC[C@H](O)c1ccccc1)[C@H]1C(=O)O[C@H](c3ccccc3)[C@H](c3ccccc3)N1[C@@H]2c1ccc(O)cc1', 0.518),
  ('Cc1cc(C)cc(N2C(=O)CS(=O)(=O)C2c2cccc([N+](=O)[O-])c2)c1 (stereo unspecified)', 0.612),
  ('COC(=O)[C@@]1(Cc2ccc(OC)cc2)[C@H]2c3cc(C(=O)N4CCCC4)n(CCc4c[nH]c5cc(F)ccc45)c3C[C@H]2CN1C(=O)c1ccccc1', 0.875),
  ('N[C@@H](Cc1ccccc1)Cn1cc(-c2ccccc2)nn1', -0.232),
  ('C=C[C@@H](COC(C)=O)N(Cc1ccccc1[N+](=O)[O-])S(=O)(=O)c1ccc(Br)cc1', 0.863);

====

Target: NADPH oxidase 4 (Homo sapiens)
Test: NOX4-dependent H2O2 signal modulators, primary screen, NOX inhibitor project, cell-based, HEK293-NOX4, tetracycline-induced, Amplex Red fluorescence (AID 1160)
Conditions: 45 min, higher = more signal, called active from +8 up or from −8 down
Lab note: compare z-score against 0.3. Equal or greater, write T. Smaller, write F.

INSERT INTO assay_data (compound, target, category_label) VALUES
  ('CC(C)N1CC=CC23O[C@@H]4C=CCOC(=O)[C@@H]4[C@H]2C(=O)N(CCO)[C@@H]3C1=O (some centres undefined)', 'NADPH oxidase 4 (Homo sapiens)', 'T'),
  ('C#CCN(C(/C=C/c1ccccc1)CO)C(C(=O)O)c1ccccc1 (centres undefined)', 'NADPH oxidase 4 (Homo sapiens)', 'F'),
  ('COc1ccc([Si](C)(C)[C@H]2[C@H](CCn3cc([C@H](O)c4ccccc4)nn3)O[C@@]3(C(=O)N(Cc4cccc(N5CCC5=O)c4)c4ccccc43)[C@@H]2C)cc1', 'NADPH oxidase 4 (Homo sapiens)', 'T'),
  ('COC(=O)[C@@]1(Cc2ccc(OC)cc2)[C@H]2c3cc(C(=O)N4CCCC4)n(Cc4cc(F)cc5c4OCOC5)c3C[C@H]2CN1C(=O)c1ccccc1', 'NADPH oxidase 4 (Homo sapiens)', 'F'),
  ('CCC[C@@H]1C=C(C(=O)O)[C@H](c2ccc(C)cc2)N1S(=O)(=O)c1ccc(C)cc1', 'NADPH oxidase 4 (Homo sapiens)', 'F'),
  ('COCCOC(=O)N1C(=O)[C@@]2(c3cc(C#CC4(O)CCCCCC4)ccc31)[C@H](C(=O)N1CCCCCCC1)[C@H]1C(=O)O[C@H](c3ccccc3)[C@H](c3ccccc3)N1[C@@H]2c1ccccc1OCCO', 'NADPH oxidase 4 (Homo sapiens)', 'F'),
  ('CC(C)NC(=O)[C@@]1(Cc2ccccc2I)c2ccccc2C(=O)N(Cc2ccccc2)[C@H]1c1ccc(CO)cc1', 'NADPH oxidase 4 (Homo sapiens)', 'T'),
  ('COCCCNC(=O)[C@@]1(C)c2ccccc2C(=O)N(Cc2cc(C(F)(F)F)cc(C(F)(F)F)c2)[C@H]1c1ccc(CO)cc1', 'NADPH oxidase 4 (Homo sapiens)', 'F'),
  ('COc1ccc(C(O)C2C=CC3C(=O)NC(=O)C3N2Nc2ccccn2)cc1OCc1ccccc1 (centres undefined)', 'NADPH oxidase 4 (Homo sapiens)', 'F'),
  ('O=c1oc(-c2ccccc2)nc2cc(Br)ccc12', 'NADPH oxidase 4 (Homo sapiens)', 'F'),
  ('C=CC[C@@]1(C(=O)O)N=C(c2ccc(OCCCO)cc2)O[C@@H]1c1ccccc1N=[N+]=[N-]', 'NADPH oxidase 4 (Homo sapiens)', 'T'),
  ('C=C[C@@H](COC(C)=O)N(Cc1ccccc1[N+](=O)[O-])S(=O)(=O)c1ccc(Br)cc1', 'NADPH oxidase 4 (Homo sapiens)', 'F'),
  ('O=C1O[C@H](c2ccccc2)[C@H](c2ccccc2)N2[C@H]1[C@@H](C(=O)O)[C@]1(C(=O)Nc3ccc(C#CC4=CCCCC4)cc31)[C@H]2c1ccc(OCCO)cc1', 'NADPH oxidase 4 (Homo sapiens)', 'F'),
  ('O=C(CCN1CCOCC1)c1cccc(O)c1', 'NADPH oxidase 4 (Homo sapiens)', 'F'),
  ('O=C1O[C@H](c2ccccc2)[C@H](c2ccccc2)N2[C@H]1[C@@H](C(=O)O)[C@]1(C(=O)Nc3ccc(C#CC4(O)CCCCCC4)cc31)[C@H]2c1ccc(OCCO)cc1', 'NADPH oxidase 4 (Homo sapiens)', 'F'),
  ('C=C[C@@H](COC(C)=O)N(Cc1ccc([N+](=O)[O-])cc1)S(=O)(=O)c1ccc(Br)cc1', 'NADPH oxidase 4 (Homo sapiens)', 'T'),
  ('C=CCNC(=O)[C@@H]1[C@H]2C(=O)O[C@H](c3ccccc3)[C@H](c3ccccc3)N2[C@H](c2ccc(O)cc2)[C@@]12C(=O)N(C(=O)OCCOC)c1ccccc12', 'NADPH oxidase 4 (Homo sapiens)', 'F'),
  ('COc1ccc(C(O)C2C=CC3C(=O)N(c4ccccc4)C(=O)C3N2Nc2ccc([N+](=O)[O-])cc2)cc1OCc1ccccc1 (centres undefined)', 'NADPH oxidase 4 (Homo sapiens)', 'F'),
  ('COC(=O)[C@@]1(Cc2ccc(F)cc2)[C@H]2c3cc(C(=O)N(C)C)n(CCc4ccccn4)c3C[C@H]2CN1C(=O)c1ccccc1', 'NADPH oxidase 4 (Homo sapiens)', 'T'),
  ('O=C1OCC=C[C@H]2OC34C=CCN(c5ccc(Cl)cc5)C(=O)[C@H]3N(CCCCCCO)C(=O)[C@@H]4[C@@H]12 (some centres undefined)', 'NADPH oxidase 4 (Homo sapiens)', 'F'),
  ('N#Cc1ccc(NN2C(C(O)c3ccc([N+](=O)[O-])cc3)C=CC3C(=O)N(c4ccccc4)C(=O)C32)cc1 (centres undefined)', 'NADPH oxidase 4 (Homo sapiens)', 'F'),
  ('COC(=O)[C@@]1(Cc2ccccc2)[C@H]2c3cc(C(=O)N4CCCC4)n(Cc4ccc(C)o4)c3C[C@H]2CN1C(=O)c1ccccc1', 'NADPH oxidase 4 (Homo sapiens)', 'F'),
  ('C[C@]1(C(=O)NCc2ccccc2)c2ccccc2C(=O)N(Cc2ccc(OC(F)(F)F)cc2)[C@H]1c1ccc(CO)cc1', 'NADPH oxidase 4 (Homo sapiens)', 'F'),
  ('O=C(NCc1ccccc1)[C@]1(CCS(=O)(=O)c2ccccc2)N=C(c2ccc(OCCCO)cc2)O[C@@H]1c1ccccc1', 'NADPH oxidase 4 (Homo sapiens)', 'T'),
  ('COCC(=C=CC[C@@H](O)c1ccc(CO)o1)CCO', 'NADPH oxidase 4 (Homo sapiens)', 'F'),
  ('Cc1ccc(S[C@]2(C(=O)NCCN3CCOCC3)CC(=O)N(Cc3cc(C(F)(F)F)cc(C(F)(F)F)c3)[C@@H]2c2ccc(CO)cc2I)cc1', 'NADPH oxidase 4 (Homo sapiens)', 'F'),
  ('CC(C)(C)OC(=O)CC[C@]1(C(=O)N2CCCCC2)N=C(c2ccc(OCCCO)cc2)O[C@H]1c1ccccc1N=[N+]=[N-]', 'NADPH oxidase 4 (Homo sapiens)', 'T'),
  ('COCCOC(=O)N1C(=O)[C@@]2(c3cc(C#CCCO)ccc31)[C@H](C(=O)NC[C@H](O)c1ccccc1)[C@H]1C(=O)O[C@H](c3ccccc3)[C@H](c3ccccc3)N1[C@@H]2c1ccc(O)cc1', 'NADPH oxidase 4 (Homo sapiens)', 'T');

Data provenance: PubChem BioAssay
